- Target Of Assay: RINT1 RAD50-interacting protein 1 (Homo sapiens, UniProt Q6NUQ1)
- Construct: isoTOP-ABPP experiments performed in cell lysates (in vitro); endogenous in cells; host or cells: soluble proteome of human cancer cell lines (MDA-MB-231; Ramos and Jurkat also prepared)
- Sequence (Q6NUQ1 whole entry): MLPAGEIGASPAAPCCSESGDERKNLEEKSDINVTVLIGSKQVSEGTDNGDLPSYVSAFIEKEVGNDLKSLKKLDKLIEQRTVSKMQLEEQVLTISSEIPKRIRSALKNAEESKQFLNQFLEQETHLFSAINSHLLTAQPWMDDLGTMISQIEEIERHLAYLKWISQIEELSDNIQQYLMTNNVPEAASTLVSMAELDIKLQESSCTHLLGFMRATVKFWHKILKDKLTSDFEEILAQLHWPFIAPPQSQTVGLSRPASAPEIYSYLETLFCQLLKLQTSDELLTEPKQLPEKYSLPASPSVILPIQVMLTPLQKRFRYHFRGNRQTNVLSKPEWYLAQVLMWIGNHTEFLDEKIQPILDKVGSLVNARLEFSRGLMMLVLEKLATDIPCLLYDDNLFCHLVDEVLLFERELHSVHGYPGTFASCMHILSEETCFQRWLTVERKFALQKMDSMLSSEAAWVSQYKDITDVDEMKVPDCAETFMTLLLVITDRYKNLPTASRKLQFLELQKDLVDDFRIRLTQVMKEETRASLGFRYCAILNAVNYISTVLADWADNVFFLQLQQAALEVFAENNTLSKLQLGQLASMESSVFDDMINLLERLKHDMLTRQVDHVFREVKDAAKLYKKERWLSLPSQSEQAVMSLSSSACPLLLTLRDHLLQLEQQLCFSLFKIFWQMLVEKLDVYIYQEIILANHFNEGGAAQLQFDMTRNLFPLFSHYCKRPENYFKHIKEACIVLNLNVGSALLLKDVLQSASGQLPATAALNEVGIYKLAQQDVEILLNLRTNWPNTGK
- Experiment Description: competitive isoTOP-ABPP
- Format: binding
- Assay Conditions: Q6NUQ1_K771; 50 uM, 231 sol, in vitro
Readout Name: R value (DMSO/fragment) for probe 1 labeling

>>> df
                                   compound  test_value
0  O=C(Oc1c(F)c(F)c(F)c(F)c1F)C(c1ccccc1)c1ccccc1 [fragment 20, Pentafluorophenyl 2,2-diphenylacetate]         1.0
1  O=C(CCc1cn(-c2ccccc2)nc1-c1ccccc1)Oc1c(F)c(F)c(F)c(F)c1F [fragment 19]         1.2
2  Cn1cc(CC(=O)Oc2c(F)c(F)c(F)c(F)c2F)c2ccccc21 [fragment 22]         1.0
3  COc1cc(CCC(=O)Oc2c(F)c(F)c(F)c(F)c2F)cc(OC)c1OC [fragment 23]         1.1
4  O=C(Oc1c(F)c(F)c(F)c(F)c1F)c1cc(C(F)(F)F)cc(C(F)(F)F)c1 [fragment 21]         2.2

====

Reported isoTOP-ABPP ratio (R) at liganded lysine P36551_K404 values for a set of molecules
- Target Of Assay: CPOX Coproporphyrinogen-III oxidase, mitochondrial (Homo sapiens)
- Construct: isoTOP-ABPP experiments performed in cell lysates (in vitro); endogenous in cells; host or cells: soluble proteome of human cancer cell lines (MDA-MB-231; Ramos and Jurkat also prepared)
- Sequence (P36551 111-454): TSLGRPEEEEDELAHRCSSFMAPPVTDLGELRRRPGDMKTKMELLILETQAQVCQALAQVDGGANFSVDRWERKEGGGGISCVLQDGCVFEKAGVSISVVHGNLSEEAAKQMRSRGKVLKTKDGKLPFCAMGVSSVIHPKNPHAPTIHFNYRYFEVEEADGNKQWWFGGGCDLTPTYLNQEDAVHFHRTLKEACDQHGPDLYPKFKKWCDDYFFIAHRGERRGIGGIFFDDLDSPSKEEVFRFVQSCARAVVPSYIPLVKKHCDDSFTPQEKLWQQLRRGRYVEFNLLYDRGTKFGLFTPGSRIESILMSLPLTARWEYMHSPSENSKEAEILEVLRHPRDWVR
- Experiment Description: competitive isoTOP-ABPP
- Type: binding
- Assay Conditions: 50 uM, in vitro, sol, 231
Readout Name: isoTOP-ABPP ratio (R) at liganded lysine P36551_K404

In [3]: df
Out[3]:
                                   molecule  test_value
0  O=C(Oc1ccc([N+](=O)[O-])cc1[N+](=O)[O-])c1ccc(-c2ccccc2)cc1 [fragment 37]         1.0
1  O=C(CC12CC3CC(CC(C3)C1)C2)Oc1ccc([N+](=O)[O-])cc1[N+](=O)[O-] [fragment 38]         1.0
2  CC(=O)Oc1ccc([N+](=O)[O-])cc1[N+](=O)[O-] [fragment 43, 2,4-Dinitrophenyl acetate]         1.1
3  O=C(CCc1coc2cc(F)ccc2c1=O)Oc1ccc([N+](=O)[O-])cc1[N+](=O)[O-] [fragment 36]         1.0
4  O=C(Oc1ccc([N+](=O)[O-])cc1[N+](=O)[O-])C1CCN(C(=O)OCc2ccccc2)CC1 [fragment 34]         1.1
5  O=C(Oc1ccc([N+](=O)[O-])cc1[N+](=O)[O-])c1ccccc1Nc1cccc(C(F)(F)F)c1 [fragment 40]         1.8

====

- Target Of Assay: FECH Ferrochelatase, mitochondrial (Homo sapiens, UniProt P22830)
- Construct: isoTOP-ABPP experiments performed in cell lysates (in vitro); endogenous in cells; host or cells: soluble proteome of human cancer cell lines (MDA-MB-231; Ramos and Jurkat also prepared)
- Sequence (P22830 55-423): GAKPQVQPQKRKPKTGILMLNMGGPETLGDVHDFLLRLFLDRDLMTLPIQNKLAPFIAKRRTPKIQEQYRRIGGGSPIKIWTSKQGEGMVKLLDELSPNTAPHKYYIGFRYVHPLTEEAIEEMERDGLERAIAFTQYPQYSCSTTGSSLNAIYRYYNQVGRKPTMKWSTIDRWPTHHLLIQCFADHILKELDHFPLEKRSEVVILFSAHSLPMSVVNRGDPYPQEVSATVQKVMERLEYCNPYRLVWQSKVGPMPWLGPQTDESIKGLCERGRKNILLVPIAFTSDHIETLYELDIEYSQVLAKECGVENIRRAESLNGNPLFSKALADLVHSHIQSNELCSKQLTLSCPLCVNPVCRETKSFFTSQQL
- Experiment Description: competitive isoTOP-ABPP
- Type: binding
- Assay Conditions: P22830_K304; 50 uM, 231 sol, in vitro
Readout Name: R value (DMSO/fragment) for probe 1 labeling

>>> print(df.to_string())
                                   compound                           target_of_assay  test_value
0  O=C(CCc1cn(-c2ccccc2)nc1-c1ccccc1)Oc1c(F)c(F)c(F)c(F)c1F [fragment 19]  FECH Ferrochelatase, mitochondrial (Homo sapiens, UniProt P22830)         1.8
1  O=C(Oc1c(F)c(F)c(F)c(F)c1F)C(c1ccccc1)c1ccccc1 [fragment 20, Pentafluorophenyl 2,2-diphenylacetate]  FECH Ferrochelatase, mitochondrial (Homo sapiens, UniProt P22830)         1.7
2  Cn1cc(CC(=O)Oc2c(F)c(F)c(F)c(F)c2F)c2ccccc21 [fragment 22]  FECH Ferrochelatase, mitochondrial (Homo sapiens, UniProt P22830)         2.0
3  O=C(Oc1c(F)c(F)c(F)c(F)c1F)c1cc(C(F)(F)F)cc(C(F)(F)F)c1 [fragment 21]  FECH Ferrochelatase, mitochondrial (Homo sapiens, UniProt P22830)         1.0

====

- Target Of Assay: HNRNPK Heterogeneous nuclear ribonucleoprotein K (Homo sapiens)
- Construct: isoTOP-ABPP experiments performed in cell lysates (in vitro); endogenous in cells; host or cells: soluble proteome of human cancer cell lines (MDA-MB-231, Ramos, Jurkat)
- Experiment Description: competitive isoTOP-ABPP
- Format: binding
- Assay Conditions: 50 uM, 231 sol, in vitro
Readout Name: isoTOP-ABPP reactivity ratio at lysine P61978_K405

                                   molecule  test_value
0  O=C(CN1C(=O)c2ccccc2C1=O)Oc1c(F)c(F)c(F)c(F)c1F [fragment 27]         1.0
1  O=C(Oc1c(F)c(F)c(F)c(F)c1F)c1ccc2ccccc2n1 [fragment 25]         1.3
2  O=C(CCc1coc2cc(F)ccc2c1=O)Oc1c(F)c(F)c(F)c(F)c1F [fragment 26]         0.9
3  O=C(Oc1ccc([N+](=O)[O-])cc1[N+](=O)[O-])C(c1ccccc1)c1ccccc1 [fragment 30, 2,4-Dinitrophenyl 2,2-diphenylacetate]         0.9
4  Cn1cc(CC(=O)Oc2ccc([N+](=O)[O-])cc2[N+](=O)[O-])c2ccccc21 [fragment 32]         0.9
5  O=C(CCc1cn(-c2ccccc2)nc1-c1ccccc1)Oc1ccc([N+](=O)[O-])cc1[N+](=O)[O-] [fragment 29]        20.0

====

- Target Of Assay: RPL10 60S ribosomal protein L10 (Homo sapiens, UniProt P27635)
- Construct: isoTOP-ABPP experiments performed in cell lysates (in vitro); endogenous in cells; host or cells: soluble proteome of human cancer cell lines (MDA-MB-231; Ramos and Jurkat also prepared)
- Experiment Description: competitive isoTOP-ABPP
- Type: binding
- Assay Conditions: 50 uM, 231 sol, in vitro
- Description: In vitro covalent fragment treatment for isoTOP-ABPP. All compounds were made up as solutions in DMSO (100×) and were used at a final concentration of 50 μM for activated esters and 100 μM for guanidinylating agents. […] R value calculation and processing. The ratios of light and heavy MS1 peaks for each unique peptide were quantified with a CIMAGE software using default parameters (3 MS1 acquisitions per peak and signal to noise threshold set to 2.5). […]
Readout Name: isoTOP-ABPP reactivity ratio at lysine P27635_K121

>>> print(df.to_string())
                                   compound  test_value
0  Cn1cc(CC(=O)Oc2ccc([N+](=O)[O-])cc2[N+](=O)[O-])c2ccccc21         1.7
1  O=C(Oc1ccc([N+](=O)[O-])cc1[N+](=O)[O-])C(c1ccccc1)c1ccccc1 [fragment 30, 2,4-Dinitrophenyl 2,2-diphenylacetate]         1.1
2  O=C(CCc1coc2cc(F)ccc2c1=O)Oc1c(F)c(F)c(F)c(F)c1F         0.9
3  O=C(CCc1cn(-c2ccccc2)nc1-c1ccccc1)Oc1ccc([N+](=O)[O-])cc1[N+](=O)[O-]         1.4

====

Reported isoTOP-ABPP ratio (R) at liganded lysine P17858_K715 values for a set of molecules
- Target Of Assay: PFKL 6-phosphofructokinase, liver type (Homo sapiens)
- Construct: isoTOP-ABPP experiments performed in cell lysates (in vitro); endogenous in cells; host or cells: soluble proteome of human cancer cell lines (MDA-MB-231; Ramos and Jurkat also prepared)
- Sequence (P17858 whole entry): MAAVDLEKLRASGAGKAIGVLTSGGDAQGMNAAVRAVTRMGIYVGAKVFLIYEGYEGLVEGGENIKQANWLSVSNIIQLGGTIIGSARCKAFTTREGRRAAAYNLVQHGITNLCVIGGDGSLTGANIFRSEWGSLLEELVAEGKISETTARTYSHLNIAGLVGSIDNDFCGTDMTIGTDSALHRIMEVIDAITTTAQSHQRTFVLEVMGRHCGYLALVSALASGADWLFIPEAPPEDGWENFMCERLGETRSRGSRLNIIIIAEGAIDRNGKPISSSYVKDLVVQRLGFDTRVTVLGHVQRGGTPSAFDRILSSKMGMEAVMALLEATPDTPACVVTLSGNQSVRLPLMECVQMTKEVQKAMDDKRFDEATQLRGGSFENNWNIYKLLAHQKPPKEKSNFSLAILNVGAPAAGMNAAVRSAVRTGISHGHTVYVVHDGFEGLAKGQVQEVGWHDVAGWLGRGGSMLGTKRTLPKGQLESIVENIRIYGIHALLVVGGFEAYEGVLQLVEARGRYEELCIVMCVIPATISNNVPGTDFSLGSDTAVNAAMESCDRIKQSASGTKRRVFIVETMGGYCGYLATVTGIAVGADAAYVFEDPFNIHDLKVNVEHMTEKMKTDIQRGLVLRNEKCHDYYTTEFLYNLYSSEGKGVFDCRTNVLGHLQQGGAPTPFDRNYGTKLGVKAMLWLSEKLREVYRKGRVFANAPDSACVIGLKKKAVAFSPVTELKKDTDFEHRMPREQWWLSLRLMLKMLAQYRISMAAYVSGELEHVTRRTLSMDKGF
- Experiment Description: competitive isoTOP-ABPP
- Assay type: binding
- Assay Conditions: 50 uM, in vitro, sol, 231
- Description: In vitro covalent fragment treatment for isoTOP-ABPP. All compounds were made up as solutions in DMSO (100×) and were used at a final concentration of 50 μM for activated esters and 100 μM for guanidinylating agents. […] R value calculation and processing. The ratios of light and heavy MS1 peaks for each unique peptide were quantified with a CIMAGE software using default parameters (3 MS1 acquisitions per peak and signal to noise threshold set to 2.5). […]
Readout Name: isoTOP-ABPP ratio (R) at liganded lysine P17858_K715

In [3]: df
Out[3]:
                                   molecule  test_value
0  O=C(Oc1ccc([N+](=O)[O-])cc1[N+](=O)[O-])c1ccc2ccccc2n1 [fragment 35]         1.3
1  O=C(Oc1ccc([N+](=O)[O-])cc1[N+](=O)[O-])c1ccc(Oc2ccccc2)cc1 [fragment 39, 2,4-Dinitrophenyl 4-phenoxybenzoate]         0.6
2  CC(=O)Oc1ccc([N+](=O)[O-])cc1[N+](=O)[O-] [fragment 43, 2,4-Dinitrophenyl acetate]         1.3
3  O=C(CCc1coc2cc(F)ccc2c1=O)Oc1ccc([N+](=O)[O-])cc1[N+](=O)[O-] [fragment 36]        20.0
4  O=C(CC12CC3CC(CC(C3)C1)C2)Oc1ccc([N+](=O)[O-])cc1[N+](=O)[O-] [fragment 38]        20.0
5  O=C(Oc1ccc([N+](=O)[O-])cc1[N+](=O)[O-])c1ccc(-c2ccccc2)cc1 [fragment 37]         1.1
6  O=C(Oc1ccc([N+](=O)[O-])cc1[N+](=O)[O-])c1ccccc1Nc1cccc(C(F)(F)F)c1 [fragment 40]         1.1
